system-name: recombinant DYRK1A kinase (Homo sapiens (Human), UniProt Q13627)
test-description: DYRK1A kinase assay (Ser/Thr 18 peptide Z-lyte FRET assay)
run-conditions: recombinant DYRK1A 0.25 µg/mL, ATP 15 µM, Ser/Thr peptide 18 4 µM, one hour at room temperature; table head prints EC50, method says IC50
Quick list: EC50 per entry.
The answer is to be given in nM; state only the numeric part.

Illustrative cases are given below, each with its answer.
Cc1nc2ccc(-c3ccn4nc(NC5CCN(CCF)CC5)ncc34)nc2n1CC(F)F :: 7
Cc1nc2ccc(-c3ccn4nc(N[C@H]5CC[C@@](C)(O)CC5)ncc34)nc2n1CC(C)C :: 33
Cc1nc2ccc(-c3ccn4nc(NC[C@H](C)O)ncc34)nc2n1CC(F)F :: 6

Request: Tell me EC50 reported for `Cc1nc2ccc(-c3ccn4nc(N[C@H]5CC[C@H](C(=O)N(C)C)CC5)ncc34)nc2n1CC(F)F`
Response: 3

====

system-name: recombinant DYRK1A kinase (Homo sapiens (Human), UniProt Q13627)
test-description: DYRK1A kinase assay (Ser/Thr 18 peptide Z-lyte FRET assay)
Format: biochemical
run-conditions: recombinant DYRK1A 0.25 µg/mL, ATP 15 µM, Ser/Thr peptide 18 4 µM, one hour at room temperature; table head prints EC50, method says IC50
measure-name: EC50 (nM)
The answer is to be given in nM; state only the numeric part.

Illustrative cases are given below, each with its answer.
Cc1nc2ncc(-c3ccn4nc(N[C@H]5CC[C@@H](O)CC5)ncc34)cc2n1CC(F)F :: 6
CO[C@@H]1COCC[C@H]1Nc1ncc2c(-c3ccc4nc(C)n(CC(F)F)c4n3)ccn2n1 :: 32

Request: Tell me EC50 reported for `C[C@@H](Nc1ncc2c(-c3cnc4nccn4c3)ccn2n1)C1CC1`
Response: 28

Request: Tell me EC50 reported for `FC1(CNc2ncc3c(-c4cnc5nccn5c4)ccn3n2)CCC1`
Response: 4

Request: Tell me EC50 reported for `c1cn2cc(-c3ccn4nc(NC5CCOCC5)ncc34)ccc2n1`
Response: 40

====

Quick list: pEC50 per entry.
system-name: recombinant DYRK1A kinase (Homo sapiens (Human))
test-description: DYRK1A kinase assay (Ser/Thr 18 peptide Z-lyte FRET assay)
Assay type: biochemical
run-conditions: recombinant DYRK1A 0.25 µg/mL, ATP 15 µM, Ser/Thr peptide 18 4 µM, one hour at room temperature; table head prints EC50, method says IC50
Description: Representative compounds were screened using the assay procedure for DYRK1A kinase activity as described below. Each compound was dissolved in DMSO as a 10 mM stock and used to prepare compound source plates. […] The Emission ratio (Em) was calculated as a ratio of the coumarin (C) emission signal (at 445 nm)/Fluorescein (F) emission signal (at 520 nm). […]
# pEC50: negative log10 of molar concentration; output just the value

Illustrative cases are given below, each with its answer.
Cc1nc2ccc(-c3ccn4nc(N[C@H]5CCN(C)C[C@@H]5F)ncc34)nc2n1CC(F)F [Compound 1855] :: 8.22
FC(F)(F)O[C@H]1CC[C@@H](Nc2ncc3c(-c4cnc5nccn5c4)ccn3n2)CC1 [Compound 1780] :: 8.15
COCC(=O)N[C@]1(C)C[C@@H](Nc2ncc3c(-c4ccc5nccnc5c4)ccn3n2)C1 [Compound 1985] :: 8.52
Cc1nc2ccc(-c3ccn4nc(NC5CCN(C(=O)C6CC6)CC5)ncc34)nc2n1CC(F)F [Compound 1860] :: 8.30
CC(C)CNc1ncc2c(-c3ccc4nccn4c3)ccn2n1 [Compound 2] :: 7.39
FC(F)(F)O[C@H]1CC[C@@H](Nc2ncc3c(-c4cnc5ncccc5c4)ccn3n2)CC1 [Compound 1798] :: 8.40

Request: Tell me pEC50 reported for CO[C@H]1CC[C@@H](Nc2ncc3c(-c4cnc5ncccc5c4)ccn3n2)CC1 [Compound 1537]
Response: 8.52

Request: Tell me pEC50 reported for FC1(F)CCC(Nc2ncc3c(-c4ccc5nccnc5c4)ccn3n2)CC1 [Compound 1392]
Response: 6.28

====

Quick list: pEC50 per entry.
system-name: recombinant DYRK1A kinase (Homo sapiens (Human))
test-description: DYRK1A kinase assay (Ser/Thr 18 peptide Z-lyte FRET assay)
run-conditions: recombinant DYRK1A 0.25 µg/mL, ATP 15 µM, Ser/Thr peptide 18 4 µM, one hour at room temperature; table head prints EC50, method says IC50
# pEC50: negative log10 of molar concentration; output just the value

Illustrative cases are given below, each with its answer.
Cc1nc2ccc(-c3ccn4nc(N[C@@H]5CCCOC5)ncc34)nc2n1CC(F)F [Compound 1863] :: 8.10
Cc1nc2ccc(-c3ccn4nc(N[C@H](C)CO)ncc34)nc2n1CC(F)F [Compound 1830] :: 7.80
CC(C)OCCNc1ncc2c(-c3ccc4nccn4c3)ccn2n1 [Compound 11] :: 6.94

Here is the next item to consider.
Request: Tell me pEC50 reported for N[C@H]1CC[C@@H](Nc2ncc3c(-c4ccc5ncccc5c4)ccn3n2)CC1 [Compound 1332]
Response: 7.70

====

system-name: recombinant DYRK1A kinase (Homo sapiens (Human), UniProt Q13627)
test-description: DYRK1A kinase assay (Ser/Thr 18 peptide Z-lyte FRET assay)
run-conditions: recombinant DYRK1A 0.25 µg/mL, ATP 15 µM, Ser/Thr peptide 18 4 µM, one hour at room temperature; table head prints EC50, method says IC50
Method: Representative compounds were screened using the assay procedure for DYRK1A kinase activity as described below. Each compound was dissolved in DMSO as a 10 mM stock and used to prepare compound source plates. […] The Emission ratio (Em) was calculated as a ratio of the coumarin (C) emission signal (at 445 nm)/Fluorescein (F) emission signal (at 520 nm). […]
Define the label as condition met when EC50 is strictly less than 8 nM and as condition not met in all remaining cases.

Consider the worked cases shown below.
CC(C)Nc1ncc2c(-c3cnc4nccn4c3)ccn2n1 [Compound 214] :: condition not met
CCn1c(C)nc2ccc(-c3ccn4nc(NCC(C)(C)F)ncc34)nc21 [Compound 926] :: condition not met
Cc1nc2ccc(-c3ccn4nc(NC5CCC6(CC5)CN(C)C6)ncc34)nc2n1CC(F)F [Compound 1846] :: condition met

For the next question, use this molecule.
Request: # check: EC50 < 8 nM for Cc1nc2ncc(-c3ccn4nc(NCC(C)(C)F)ncc34)cc2n1C(C)C [Compound 571]
Response: condition not met

====

system-name: recombinant DYRK1A kinase (Homo sapiens (Human), UniProt Q13627)
test-description: DYRK1A kinase assay (Ser/Thr 18 peptide Z-lyte FRET assay)
Type: biochemical
run-conditions: recombinant DYRK1A 0.25 µg/mL, ATP 15 µM, Ser/Thr peptide 18 4 µM, one hour at room temperature; table head prints EC50, method says IC50
measure-name: EC50 (nM)
The answer is to be given in nM; state only the numeric part.

Illustrative cases are given below, each with its answer.
Cc1nc2ncc(-c3ccn4nc(NC5CCN(CCC(F)(F)F)CC5)ncc34)cc2n1CC(F)F :: 9
c1cn2cc(-c3ccn4nc(NCC5CC5)ncc34)cnc2n1 :: 9

Request: Tell me EC50 reported for `Cc1nc2ccc(-c3ccn4nc(N[C@H]5C[C@@H](O)C5)ncc34)nc2n1CC(F)F`
Response: 5

Request: Tell me EC50 reported for `CC(=O)N[C@]1(C)C[C@@H](Nc2ncc3c(-c4ccc5nc(C)n(CC(F)F)c5c4)ccn3n2)C1`
Response: 1

Request: Tell me EC50 reported for `Cc1nc2ccc(-c3ccn4nc(N[C@H]5C[C@@H](CO)C5)ncc34)nc2n1CC(F)F`
Response: 3

Request: Tell me EC50 reported for `Cc1nc2ccc(-c3ccn4nc(NC5CCN(CCO)CC5)ncc34)nc2n1CC(F)F`
Response: 9

Request: Tell me EC50 reported for `Cc1nc2ncc(-c3ccn4nc(NC5CCN(C(=O)C(C)C)CC5)ncc34)cc2n1CC(F)F`
Response: 3

Request: Tell me EC50 reported for `CC(C)(F)CNc1ncc2c(-c3ccc4nccnc4c3)ccn2n1`
Response: 27

====

system-name: recombinant DYRK1A kinase (Homo sapiens (Human), UniProt Q13627)
test-description: DYRK1A kinase assay (Ser/Thr 18 peptide Z-lyte FRET assay)
run-conditions: recombinant DYRK1A 0.25 µg/mL, ATP 15 µM, Ser/Thr peptide 18 4 µM, one hour at room temperature; table head prints EC50, method says IC50
measure-name: log10 of EC50 (log10 of the value in nM)
log10 EC50, nM

Illustrative cases are given below, each with its answer.
Cc1nc2ccc(-c3ccn4nc(NC[C@@H](C)O)ncc34)nc2n1CC(F)F [Compound 1831] :: 0.85
CN1CC2(CC(Nc3ncc4c(-c5ccc6ncccc6c5)ccn4n3)C2)C1 [Compound 1348] :: 0.70
Cc1nc2ccc(-c3ccn4nc(NC5CCN(CCC(F)(F)F)CC5)ncc34)nc2n1CC(F)F [Compound 1851] :: 1.04

Request: Tell me log10 of EC50 reported for Cc1nc2ccc(-c3ccn4nc(NC5CC6(CCN(C)CC6)C5)ncc34)nc2n1CC(F)F [Compound 1836]
Response: 0.48

Request: Tell me log10 of EC50 reported for Cc1nc2ccc(-c3ccn4nc(NC5CCOCC5)ncc34)nc2n1CC(F)F [Compound 1132]
Response: 0.70

Request: Tell me log10 of EC50 reported for Cc1nc2ccc(-c3ccn4nc(N[C@H]5CC[C@](C)(O)CC5)ncc34)nc2n1CC(F)F [Compound 1840]
Response: 0.48

Request: Tell me log10 of EC50 reported for c1cn2cc(-c3ccn4nc(NC5CC6(CNC6)C5)ncc34)cnc2n1 [Compound 1732]
Response: 1.11

Request: Tell me log10 of EC50 reported for C[C@H](Nc1ncc2c(-c3cnc4nccn4c3)ccn2n1)C1CC1 [Compound 230]
Response: 1.76

Request: Tell me log10 of EC50 reported for FC(F)(CNc1ncc2c(-c3cnc4nccn4c3)ccn2n1)C1CC1 [Compound 232]
Response: 0.95

Request: Tell me log10 of EC50 reported for Cc1nc2ccc(-c3ccn4nc(N[C@H]5CC[C@@H](C(=O)N(C)C)CC5)ncc34)nc2n1CC(F)F [Compound 1845]
Response: 0.60
